This collection of values is drawn from paper PMC7015555.

pKi overview
# test.target: TTR (Homo sapiens, UniProt P02766)
# assay: FITC-T4 TTR competitive binding assay
pKi: −log10 of the molar value.
readout: pKi

molecular.string | readout.number
Oc1c(Br)cc(Br)cc1Br | 8.26
O=S(=O)(O)C(F)(F)C(F)(F)C(F)(F)C(F)(F)C(F)(F)C(F)(F)F | 6.55
Brc1ccc(Oc2cc(Br)c(Br)cc2Br)c(Br)c1 | 6.82
O=C(O)C(F)(F)C(F)(F)C(F)(F)C(F)(F)C(F)(F)C(F)(F)C(F)(F)F | 5.96
Oc1c(Cl)c(Cl)c(Cl)c(Cl)c1Cl | 7.62
Brc1ccc(Oc2ccc(Br)cc2Br)c(Br)c1 | 6.36
Clc1cc(Cl)c(-c2cc(Cl)c(Cl)cc2Cl)cc1Cl | 6.82
CCCCCCCCCc1ccc(O)cc1 | 5.41
O=C(O)C(F)(F)C(F)(F)C(F)(F)C(F)(F)C(F)(F)C(F)(F)F | 6.19
